# SUBJECT_OF_TEST: Growth hormone secretagogue receptor type 1 (Homo sapiens, UniProt Q92847)
# Sequence (Q92847 whole entry): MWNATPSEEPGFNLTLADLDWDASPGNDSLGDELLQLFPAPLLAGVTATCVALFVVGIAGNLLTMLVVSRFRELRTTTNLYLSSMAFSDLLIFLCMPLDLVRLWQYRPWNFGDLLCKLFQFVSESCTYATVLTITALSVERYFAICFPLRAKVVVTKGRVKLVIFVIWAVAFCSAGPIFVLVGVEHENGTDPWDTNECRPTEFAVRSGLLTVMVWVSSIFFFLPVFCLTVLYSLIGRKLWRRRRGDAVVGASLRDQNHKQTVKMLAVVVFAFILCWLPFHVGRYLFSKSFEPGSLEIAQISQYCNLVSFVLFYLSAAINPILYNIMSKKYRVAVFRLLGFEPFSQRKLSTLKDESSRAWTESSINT
# MEASUREMENT_PROTOCOL: Agonist activity at human GHSR1a by FLIPR assay relative to human ghrelin
# Assay type: functional
VALUE_TYPE: Intrinsic activity
Form rule: numeric answer, no unit written next to it.

[ask] Jot down Intrinsic activity (Growth hormone secretagogue receptor type 1 (Homo sapiens, UniProt Q92847)) of "C[C@@H]1CN(c2cc(NS(=O)(=O)c3ccc(-c4ccccn4)s3)ccc2C#N)C[C@H](C)N1" .
[reply] 0.9

[ask] For Growth hormone secretagogue receptor type 1 (Homo sapiens, UniProt Q92847), give the measured Intrinsic activity of the entry "C[C@@H]1CN(c2ccc(C(=O)N(C)C)c(NS(=O)(=O)c3ccc(-c4ccccn4)s3)c2)C[C@H](C)N1"
[reply] 0.9

[ask] Lab note: record Intrinsic activity of "COc1ccc(N2C[C@@H](C)N[C@@H](C)C2)cc1NS(=O)(=O)c1ccc(OCc2ccccc2)cc1" tested on Growth hormone secretagogue receptor type 1 (Homo sapiens, UniProt Q92847).
[reply] 0.8

[ask] Answer briefly: Intrinsic activity recorded on Growth hormone secretagogue receptor type 1 (Homo sapiens, UniProt Q92847) for "COc1ccc(N2C[C@@H](C)N[C@@H](C)C2)cc1NS(=O)(=O)c1cccc(-c2ccccc2)c1"
[reply] 1

[ask] Give reported Intrinsic activity for "COc1ccc(F)c(-c2ccc(S(=O)(=O)Nc3cc(N4C[C@@H](C)N[C@@H](C)C4)ccc3OC)cc2)c1" (Growth hormone secretagogue receptor type 1 (Homo sapiens, UniProt Q92847))
[reply] 1.2

[ask] Given "COc1ccc(N2C[C@@H](C)N[C@@H](C)C2)cc1NS(=O)(=O)c1ccc(-c2ccncc2)cc1" , report its Intrinsic activity on Growth hormone secretagogue receptor type 1 (Homo sapiens, UniProt Q92847).
[reply] 0.7

[ask] # return Intrinsic activity for "COc1ccc(NS(=O)(=O)c2ccc(-c3ccccn3)s2)cc1N1C[C@@H](C)N[C@@H](C)C1" , test system: Growth hormone secretagogue receptor type 1 (Homo sapiens, UniProt Q92847)
[reply] 0.9

[ask] Give Intrinsic activity for this entry on Growth hormone secretagogue receptor type 1 (Homo sapiens, UniProt Q92847): "COc1ccc(N2C[C@@H](C)N[C@@H](C)C2)cc1NS(=O)(=O)c1ccc(-c2cc(Cl)ccc2F)cc1"
[reply] 1

[ask] State, for Growth hormone secretagogue receptor type 1 (Homo sapiens, UniProt Q92847), measured Intrinsic activity of the molecule listed here: "C[C@@H]1CN(c2ccc(Cl)c(NS(=O)(=O)c3ccc(-c4ccccn4)s3)c2)C[C@H](C)N1"
[reply] 1

[ask] Would you please give the reported Intrinsic activity of "COc1cccc(-c2ccc(S(=O)(=O)Nc3cc(N4C[C@@H](C)N[C@@H](C)C4)ccc3OC)cc2)c1" with Growth hormone secretagogue receptor type 1 (Homo sapiens, UniProt Q92847)?
[reply] 1

[ask] Jot down Intrinsic activity (Growth hormone secretagogue receptor type 1 (Homo sapiens, UniProt Q92847)) of "COc1ccc(N2C[C@@H](C)N[C@@H](C)C2)cc1NS(=O)(=O)c1ccc(-c2cccs2)cc1F" .
[reply] 0.9

[ask] Output reported Intrinsic activity of the molecule "COc1ccc(N2C[C@@H](C)N[C@@H](C)C2)cc1NS(=O)(=O)c1ccc(Oc2ccccc2)cc1" on Growth hormone secretagogue receptor type 1 (Homo sapiens, UniProt Q92847).
[reply] 0.9

[ask] Supply Intrinsic activity measured with Growth hormone secretagogue receptor type 1 (Homo sapiens, UniProt Q92847) for "COc1ccc(N2C[C@@H](C)N[C@@H](C)C2)cc1NS(=O)(=O)c1ccc(-c2cccs2)cc1Cl" .
[reply] 0.9

[ask] Report value only: Intrinsic activity, Growth hormone secretagogue receptor type 1 (Homo sapiens, UniProt Q92847), "COc1ccc(N2C[C@@H](C)N[C@@H](C)C2)cc1NS(=O)(=O)c1ccc(-c2ccccn2)s1"
[reply] 1.1

[ask] Quote Growth hormone secretagogue receptor type 1 (Homo sapiens, UniProt Q92847) Intrinsic activity for entry "CC(C)Oc1ccc(N2C[C@@H](C)N[C@@H](C)C2)cc1NS(=O)(=O)c1ccc(-c2ccccn2)s1" .
[reply] 1.1

[ask] Look up and report measured Intrinsic activity (Growth hormone secretagogue receptor type 1 (Homo sapiens, UniProt Q92847)) for the following molecule: "COc1ccc(N2C[C@@H](C)N[C@@H](C)C2)cc1NS(=O)(=O)c1ccc(-c2ccco2)cc1"
[reply] 0.9

[ask] # lookup: Growth hormone secretagogue receptor type 1 (Homo sapiens, UniProt Q92847) Intrinsic activity, key = "COc1ccc(N2C[C@@H](C)N[C@@H](C)C2)cc1NS(=O)(=O)c1ccc(Br)cc1"
[reply] 0.7

###

# SUBJECT_OF_TEST: Growth hormone secretagogue receptor type 1 (Homo sapiens)
# MEASUREMENT_PROTOCOL: Agonist activity at human GHSR1a by FLIPR assay
VALUE_TYPE: pEC50
FYI, pEC50 means -log10 of a concentration in mol per litre.

[ask] Please report pEC50 for the following compound: "C[C@@H]1CN(c2cc(NS(=O)(=O)c3ccc(-c4ccccn4)s3)ccc2C#N)C[C@H](C)N1"
[reply] 6.20

[ask] Specify measured pEC50 for "COc1ccc(N2C[C@@H](C)N[C@@H](C)C2)cc1NS(=O)(=O)c1ccc(-c2ccccn2)s1" .
[reply] 8.00

[ask] Using the record for "CC(=O)c1ccc(N2C[C@@H](C)N[C@@H](C)C2)cc1NS(=O)(=O)c1ccc(-c2ccccn2)s1" , state its measured pEC50.
[reply] 7.40

[ask] Annotate the compound "COc1ccc(N2C[C@@H](C)N[C@@H](C)C2)cc1NS(=O)(=O)c1ccc(Oc2ccccc2)cc1" with its measured pEC50.
[reply] 7.20

###

# SUBJECT_OF_TEST: Growth hormone secretagogue receptor type 1 (Homo sapiens)
# MEASUREMENT_PROTOCOL: Agonist activity at human GHSR1a by FLIPR assay relative to human ghrelin
# Type: functional
VALUE_TYPE: Intrinsic activity
Field format: numeric only.

[ask] Enter recorded Intrinsic activity with Growth hormone secretagogue receptor type 1 (Homo sapiens) for "COc1ccc(N2C[C@@H](C)N[C@@H](C)C2)cc1NS(=O)(=O)c1ccc(-n2cccn2)cc1" here.
[reply] 0.8

[ask] Report measured Intrinsic activity on Growth hormone secretagogue receptor type 1 (Homo sapiens); entry: "C[C@@H]1CN(c2ccc(F)c(NS(=O)(=O)c3ccc(-c4ccccn4)s3)c2)C[C@H](C)N1"
[reply] 0.8

[ask] Quote Growth hormone secretagogue receptor type 1 (Homo sapiens) Intrinsic activity for entry "COc1ccc(N2C[C@@H](C)N[C@@H](C)C2)cc1NS(=O)(=O)c1ccc(-c2ccc(C)o2)cc1" .
[reply] 1

[ask] Identify measured Intrinsic activity obtained with Growth hormone secretagogue receptor type 1 (Homo sapiens) for "COc1ccc(N2C[C@@H](C)N[C@@H](C)C2)cc1NS(=O)(=O)c1cccc(-c2ccco2)c1" .
[reply] 1

###

Please go through the items and note down their EC50.
# SUBJECT_OF_TEST: Growth hormone secretagogue receptor type 1 (Homo sapiens)
# MEASUREMENT_PROTOCOL: Agonist activity at human GHSR1a by FLIPR assay
Answer format: numeric, nM implied, no suffix.

[ask] Identify measured EC50 associated with "COc1ccc(N2C[C@@H](C)N[C@@H](C)C2)cc1NS(=O)(=O)c1ccc(-n2cccn2)cc1"
[reply] 15.8

[ask] Identify EC50 associated with the molecule "COc1ccc(N2C[C@@H](C)N[C@@H](C)C2)cc1NS(=O)(=O)c1ccc(-c2ccncc2)cc1"
[reply] 316

[ask] Give the reported value of EC50 for this record: "C[C@@H]1CN(c2ccc(Cl)c(NS(=O)(=O)c3ccc(-c4ccccn4)s3)c2)C[C@H](C)N1"
[reply] 39.8

[ask] Hello, please tell me recorded EC50 for this one: "COc1ccc(N2C[C@@H](C)N[C@@H](C)C2)cc1NS(=O)(=O)c1ccc(-c2cnco2)s1"
[reply] 2.51

###

Please respond with reported pEC50 for every item in the list.
# SUBJECT_OF_TEST: Growth hormone secretagogue receptor type 1 (Homo sapiens, UniProt Q92847)
# MEASUREMENT_PROTOCOL: Agonist activity at human GHSR1a by FLIPR assay
Remember, pEC50 is on a log scale: it is -log10 of the molar concentration.

[ask] State, in one line, measured pEC50 of "COc1ccc(N2C[C@@H](C)N[C@@H](C)C2)cc1NS(=O)(=O)c1cccc(-c2ccco2)c1"
[reply] 7.70

[ask] Entry "CC(C)Oc1ccc(N2C[C@@H](C)N[C@@H](C)C2)cc1NS(=O)(=O)c1ccc(-c2ccccn2)s1" needs its pEC50 filled in; supply it.
[reply] 7.00

[ask] Give a short answer stating reported pEC50 for "COc1ccc(N2C[C@@H](C)N[C@@H](C)C2)cc1NS(=O)(=O)c1ccc(Br)cc1" .
[reply] 6.90

[ask] Give a short answer stating reported pEC50 for "CCOc1ccc(N2C[C@@H](C)N[C@@H](C)C2)cc1NS(=O)(=O)c1ccc(-c2ccccn2)s1" .
[reply] 7.40

[ask] Respond only with pEC50 recorded for "COc1ccc(N2C[C@@H](C)N[C@@H](C)C2)cc1NS(=O)(=O)c1ccc(-c2cncnc2)cc1"
[reply] 6.50

[ask] Identify pEC50 associated with the compound "COc1ccc(N2C[C@@H](C)N[C@@H](C)C2)cc1NS(=O)(=O)c1ccc(-c2ccco2)cc1"
[reply] 8.40

[ask] Consider the compound "COc1ccc(F)c(-c2ccc(S(=O)(=O)Nc3cc(N4C[C@@H](C)N[C@@H](C)C4)ccc3OC)cc2)c1" and give its recorded pEC50.
[reply] 9.40

[ask] Using the record for "COc1ccc(N2C[C@@H](C)N[C@@H](C)C2)cc1NS(=O)(=O)c1ccc(-c2cccs2)cc1F" , state its measured pEC50.
[reply] 8.70
